Biological target: ADP-ribosylation factor GTPase-activating protein 1 (Rattus norvegicus) (UniProt Q62848)
Sequence (Q62848 1-136 limits assumed): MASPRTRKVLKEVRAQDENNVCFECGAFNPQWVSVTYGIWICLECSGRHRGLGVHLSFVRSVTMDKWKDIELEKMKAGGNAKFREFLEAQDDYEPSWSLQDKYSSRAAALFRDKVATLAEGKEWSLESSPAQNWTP
Experiment: blockers of ARFGAP1-stimulated ARF1 GTP hydrolysis – biochemical, fluorescence polarization, GDP tracer, primary screen (AID 651572);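 note: 0% = DMSO wells with enzyme and 100% = wells lacking Arfgap1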
Settings: GDP FP detection, at 16.5 µM, hits give high values
The whole screen tested about 360,000 compounds, of which about 950 (0.26%) were called active. The full list was thinned out, with actives kept by preference.
VALUE TYPE: inhibition (%)
The response must be a number in % with no trailing unit.

CC(=O)c1ccc(S(=O)(=O)NCC2CCN(C(=O)C(=O)c3cccs3)CC2)cc1	0.05
Cc1cc(NCCc2c[nH]c3ccccc23)ccc1Oc1cccnc1	4.98
CCOc1ccccc1C(=O)N1CCC[C@@H]1C(=O)N1CCC[C@H]1C(=O)NCc1ccccc1	2.51
COC(=O)[C@]12C[C@H](CC(=O)NCc3cccc(C(F)(F)F)c3)C(=O)N(Cc3ccc4c(c3)OCO4)C1=C[C@H](COCc1ccccc1)O[C@@H]2C	5.08
Cc1ccc2nc(-c3ccc(CN4CCC(n5cc(-c6ccccc6)[nH]c5=O)CC4)cc3)c(-c3ccccc3)nc2c1	8.03

Provide only the value of recorded inhibition for `O=C(CCc1ccccc1)Nc1nn[nH]n1`
11.2

Provide only the value of recorded inhibition for Cc1cc(C)cc(NC(=O)C2CCCN(S(=O)(=O)c3ccc4[nH]c(=O)ccc4c3)C2)c1 (stereo not given)
27.2

Provide only the value of recorded inhibition for `CC[C@H](NC(=O)[C@H](Cc1ccccc1)NC(=O)[C@H]1O[C@@H](n2cnc3c(=O)[nH]c(N)nc32)[C@H](O)[C@@H]1O)c1ccccc1`
10

Provide only the value of recorded inhibition for `CC(C)(C)NC(=O)CSc1nnc(NC(=O)CCc2ccccc2)s1`
0.73

Provide only the value of recorded inhibition for `COc1ccc(NC(=O)c2ccc(C#CC(C)(C)O)cc2)cc1`
-7.91

----------
Target: ADP-ribosylation factor GTPase-activating protein 1 (Rattus norvegicus) (UniProt Q62848)
Assay: blockers of ARFGAP1-stimulated ARF1 GTP hydrolysis – biochemical, fluorescence polarization, GDP tracer, primary screen (AID 651572);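 note: 0% = DMSO wells with enzyme and 100% = wells lacking Arfgap1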
Conditions: GDP FP detection, at 16.5 µM, hits give high values
Out of some 360,000 compounds screened, about 950 (0.26%) were called active. The sample holds actives, similar compounds and a random draw of the others, so the mix is not that of the screen.
VALUE TYPE: inhibition (%)
The response must be a number in % with no trailing unit.

In the examples that follow, each entry is paired with its recorded inhibition.
O=C(NCc1ccccc1)[C@@H]1CCCN1C(=O)[C@H]1CCCN1C(=O)c1cccc(Cl)c1	9.96
COc1ccc(-c2cc3nc(NCCOc4ccccc4)ccn3n2)cc1	22.7
COc1ccc(CNC(=O)C(Cc2ccccc2)n2cccc2)cc1 (stereo not given)	33.6
CC(C)[C@@H](C)/C=C/[C@@H](C)[C@H]1CC[C@@H]2[C@]1(C)CCC1[C@]23C=C[C@]2(C[C@@H](O)CC[C@]12C)N(c1ccc([N+](=O)[O-])cn1)O3 (stereo not given in full)	2.09
COc1ccc(NC(=O)N(C)C[C@@H]2OCCCC[C@@H](C)Oc3ccc(NC(=O)NC4CCCCC4)cc3C(=O)N([C@H](C)CO)C[C@@H]2C)cc1	-0.56

Now for a further compound.
Provide only the value of recorded inhibition for `CC(C)CNc1cccc2c1S(=O)(=O)N[C@H](C)CO2`
1.59

Ref: PubChem BioAssay AID651572
